Test system: COLO 205 colon
Test: NCI-60 one-dose screen, 48 h
Details: 10 µM unless noted
Compounds without any hit were thinned out: in the full panel of roughly 83,000, 20% have a hit. Active and inactive are the calls of the source. The calls were made as follows: active = growth percent below 10; inactive = the rest.
Outcomes: 1.0 = active, 0.0 = inactive

compound: C=C1C(=O)O[C@H]2[C@H]1CC/C(Cn1cc(-c3ccsc3)nn1)=C\CC[C@@]1(C)O[C@@H]21
class: 1.0

compound: Cc1ccc(Cn2c(-c3nonc3N)nc3ccccc32)cc1
class: 0.0

compound: CC(CCc1ccccc1)NC(=O)c1n[nH]c(=O)c2ccccc12 (configuration not stated)
class: 0.0

compound: N#Cc1ccc(NC(=O)c2ccc3cccnc3c2O)cc1
class: 0.0

compound: CCCCCCCCCCCCOB(OCCCCCCCCCCCC)OCCCCCCCCCCCC
class: 0.0

compound: COc1cccc(/C=C2\SC(N3CCN(c4ccccn4)CC3)=NC2=O)c1
class: 0.0

compound: Cc1c(C2=NNC(c3ccc4c(c3)OCO4)C2)[n+]([O-])c2ccccc2[n+]1[O-] (configuration not stated)
class: 0.0

compound: Cc1ccc(S(=O)(=O)OCC(=O)Nc2ccc(C(=O)O)c(O)c2)cc1
class: 0.0

compound: COc1cccc2nc(Nc3ccc(NC(=O)c4ccc5ncccc5c4)cc3)ccc12
class: 0.0

compound: CCOC(=O)C1=C(C)NC(=O)NC1c1ccc(OCC(=O)N/N=C/c2ccc(Cl)cc2)cc1 (configuration not stated)
class: 0.0

compound: COc1ccc2c(c1)C(C)Cc1c(N(C)C)ncnc1N2C (configuration not stated)
class: 0.0

compound: Cc1sc2nc(CSc3nnc(-c4ccco4)o3)[nH]c(=O)c2c1C
class: 0.0

compound: COC1=CC(c2ccc[nH]2)=N/C1=C\c1[nH]c(C)c(CCCn2cc(CCCCCCCCC[C@@H]3Cc4cc(O)ccc4C4CC[C@]5(C)[C@@H](O)CC[C@H]5C43)nn2)c1C (some centres not stated)
class: 0.0

compound: CC1(C)OC2COC3(C(=O)O)OC(C)(C)OC3C2O1 (configuration not stated)
class: 0.0

compound: O=C(CNC(=O)c1cccc2ccccc12)Nc1ccccc1Oc1ccccc1
class: 1.0

compound: Nc1cc2c(cc1N)-c1cc(N)c(N)cc1C2
class: 0.0

compound: O=C1NC(Cc2c[nH]c3ccccc23)C(=O)N1Cc1ccc(Cl)cc1 (configuration not stated)
class: 0.0

====

Tested on: SF-295 CNS
Assay: NCI-60 one-dose screen, 48 h (100 = growth as untreated, 0 = no growth, -100 = all killed)
Settings: 10 µM unless noted
The panel holds about 83,000 compounds, 20% with a hit somewhere; the sample as a whole holds those more often.
Recorded growth values for a group of molecules are listed next.

compound-string: COc1ccc(C(=O)N2CCN(C(=O)c3cc(OC)c(OC)c(OC)c3)CC2)cc1OCCCCOc1cc2c(cc1OC)C(=O)N1CCC[C@H]1C=N2
growth, %: 109
--
compound-string: Cc1cc2c(C(C)C)c(O)c(O)c(C=NCCCCCCC(=O)O)c2c(O)c1-c1c(C)cc2c(C(C)C)c(O)c(O)c(C=NCCCCCCC(=O)O)c2c1O
growth, %: 11.9
--
compound-string: Cc1cc(C)c2c(=O)[nH]c(SCC(=O)Nc3cccc(S(=O)(=O)N(C)C)c3)nc2n1
growth, %: 139
--
compound-string: CN(C)c1ccc(/C=C\N=Nc2ccc(Br)cc2)cc1
growth, %: 29.1
--
compound-string: CN1C(=O)[C@H]2c3c1cccc3[C@@]13NC(=O)O[C@H]1[C@H](CCC3(C)C)C2(C)C
growth, %: 75
--
compound-string: NC(=O)c1c(NC(=O)c2ccc3c(c2)OCO3)sc2c1CCC(=O)C2
growth, %: -4.12

====

Tested on: RXF 393 renal
Assay: NCI-60 one-dose screen, 48 h (100 = growth as untreated, 0 = no growth, -100 = all killed)
Settings: 10 µM unless noted
This is part of a sample that, as a whole, favours compounds with a hit. Of some 83,000 tested, about 20% had one in any assay.

compound: CCCCOc1nc2c(C)cccc2cc1C1CNC(=O)c2ccccc2N1 (stereo unspecified)
growth (%): 78.3

compound: COc1cc(-c2csc(NC(=O)Nc3ccc(Cl)cc3Cl)n2)cc(OC)c1OC
growth (%): 49.9

compound: O=C(O)C(=Cc1c2ccccc2cc2ccccc12)C(=O)O
growth (%): 115

compound: Cc1cccc(NC(=O)c2sc3nc4c(cc3c2N)CCCC4)c1
growth (%): 63.8

compound: Cc1cc2c(C(C)C)c(O)c(O)c(C=NCCCCC(=O)O)c2c(O)c1-c1c(C)cc2c(C(C)C)c(O)c(O)c(C=NCCCCC(=O)O)c2c1O
growth (%): 57

compound: Nc1cccc2c1CN(C1CCC(=O)NC1=O)C2=O (stereo unspecified)
growth (%): -17.4

====

Items are presented alongside their recorded growth.
System: MOLT-4 leukemia
Assay: NCI-60 one-dose screen, 48 h (100 = growth as untreated, 0 = no growth, -100 = all killed)
Settings: 10 µM unless noted
Description: Growth inhibition of the MOLT-4 human tumor cell line is measured as a screen for anti-cancer activity. Cells are grown in 96 well plates and exposed to the test compound for 48 hours. Compounds are tested at a single concentration, which is 10^-5 M for most compounds. The reported endpoint is percent growth (GI% or GIPRCNT), where numbers from 0 - 100% represent growth inhibition, and numbers from -100% - 0 represent cell death. For example, a value of 40 represents 60% growth inhibition. […]
This is part of a sample that, as a whole, favours compounds with a hit. Of some 83,000 tested, about 20% had one in any assay. Active and inactive are the calls of the source. How the source made its calls: active means growth percent below 10; inactive means the rest.

compound: Clc1ccc2c(c1)NC1(CCSc3ccccc31)n1nccc1-2 (centres undefined)
growth: 90.9% (inactive)
--
compound: C#CCC1(c2ccc(F)c(F)c2)NS(=O)(=O)c2ccccc21 (centres undefined)
growth: 90% (inactive)
--
compound: COc1ccc(/C=C(\C#N)c2ccc([N+](=O)[O-])cc2)c2ccccc12
growth: 88.3% (inactive)
--
compound: COc1cc(Cn2c(SCC(=O)Nc3cc(OC)c(OC)c(OC)c3)nc3ccccc3c2=O)cc(OC)c1OC
growth: 89.4% (inactive)

====

Measured growth, listed per entry for reference.
Test system: SNB-19 CNS
Assay: NCI-60 one-dose screen, 48 h (100 = growth as untreated, 0 = no growth, -100 = all killed)
Conditions: 10 µM unless noted
This is part of a sample that, as a whole, favours compounds with a hit. Of some 83,000 tested, about 20% had one in any assay.
experimental-endpoint: growth (%)

molecule: O=c1[nH]c2ccccc2cc1-c1nnc(Cc2ccccc2)o1
reported-measurement: 86
//
molecule: O=C(CC(O)c1ccncc1)c1ccccc1 (stereo unspecified)
reported-measurement: 68.2
//
molecule: Cc1cccc(-n2c(C)nc3ccc(NC(=O)NCCCl)cc3c2=O)c1
reported-measurement: 101
//
molecule: COc1cc(OC)c(C(=O)/C=C/c2cccc(C(F)(F)F)c2)c(OC)c1
reported-measurement: 14.2
//
molecule: COc1ccc(C2CC(c3cccs3)=NN2c2ccc(S(=O)(=O)NC(=O)NCc3cccc(OC)c3)cc2)cc1 (stereo unspecified)
reported-measurement: 103
//
molecule: N#CC1=C(N)n2nc(-c3ccncc3)nc2NC1c1cccc2ccccc12 (stereo unspecified)
reported-measurement: 92.8

====

Test system: OVCAR-5 ovarian
Test: NCI-60 one-dose screen, 48 h (100 = growth as untreated, 0 = no growth, -100 = all killed)
Conditions: 10 µM unless noted
This is part of a sample that, as a whole, favours compounds with a hit. Of some 83,000 tested, about 20% had one in any assay.
experimental-endpoint: growth (%)

molecule: CCCCCCCCCCCCOB(OCCCCCCCCCCCC)OCCCCCCCCCCCC
experimental-endpoint: growth
reported-measurement: 110
--
molecule: Clc1cccc(Cl)c1Cn1c(-c2cncs2)nc2ccccc21
experimental-endpoint: growth
reported-measurement: 94
--
molecule: CC(=O)Nc1ccc(S(=O)(=O)N2C(=O)CCC2C(=O)Nc2ccc(Br)cc2)cc1 (centres undefined)
experimental-endpoint: growth
reported-measurement: 77.5
--
molecule: COc1ncc(-c2ccc3ncnc(Nc4cccc(Cl)c4)c3c2)cc1N(S(C)(=O)=O)S(C)(=O)=O
experimental-endpoint: growth
reported-measurement: 43.2
--
molecule: CCCn1c(=S)sc2c(Cl)nc(C)nc21
experimental-endpoint: growth
reported-measurement: 109
--
molecule: OCc1c(-c2ccccc2)nc2sccn12
experimental-endpoint: growth
reported-measurement: 109
--
molecule: COc1cc(OC)c(C(=O)/C=C/c2cccc(C(F)(F)F)c2)c(OC)c1
experimental-endpoint: growth
reported-measurement: 42.4
--
molecule: CCCCC[C@@H]1Cc2cc(O)c(C(=O)O)c3c2[C@H](C[C@@]2(CCCO2)O3)O1
experimental-endpoint: growth
reported-measurement: 104
--
molecule: COc1ccc(Cn2c(SC)nc(=O)n(Cc3ccc(Cl)cc3)c2=O)cc1
experimental-endpoint: growth
reported-measurement: 92.1
--
molecule: O=C(O)C(=Cc1c2ccccc2cc2ccccc12)C(=O)O
experimental-endpoint: growth
reported-measurement: 112
--
molecule: CN(C)c1ccc(C2CC(c3ccccc3)=NN2/C=C2\SC(=O)NC2=O)cc1 (centres undefined)
experimental-endpoint: growth
reported-measurement: 94.2
--
molecule: CCOc1ccc(/C=C/C=N/NC(N)=S)cc1
experimental-endpoint: growth
reported-measurement: 90.9
--
molecule: CSc1ccccc1C#C/C=C\C#Cc1ccccc1N1CCCC1=O
experimental-endpoint: growth
reported-measurement: 72.2
--
molecule: C=C1C(=O)O[C@H]2[C@H](O)[C@@H](C)CCC/C(C)=C/CC[C@@]3(C)O[C@@H]3C[C@@H]12
experimental-endpoint: growth
reported-measurement: 95.8
--
molecule: COc1cccc2cc(-c3cc4ccccc4[nH]3)c(=NC(=O)c3ccc(Cl)cc3)oc12
experimental-endpoint: growth
reported-measurement: 85.9
--
molecule: Cc1ccc2c(c1)C(C)Cc1c(N(C)C)ncnc1N2C (centres undefined)
experimental-endpoint: growth
reported-measurement: 83.9
--
molecule: CN(C)c1nc(N)c(N=O)c(N)n1
experimental-endpoint: growth
reported-measurement: 111
--
molecule: COc1ccc(-n2c(C)cc(-c3ccccc3)c2C)cc1
experimental-endpoint: growth
reported-measurement: 63.8
--
molecule: O=C(CCCn1c2c(sc3ccccc32)c(=O)n2nnc(-c3ccccc3)c12)NCCc1cnc[nH]1
experimental-endpoint: growth
reported-measurement: -82.1
